Hey, just so you know, these numbers are from patent US9951094B2.

Collected Molar Absorption Coefficient ϵ values appear next to each entry.
- Protocol Details: UV-Vis absorption spectra in solvents
- Assay type: physicochemical
- Condition Parameters: cyclohexane
Measured Metric: Molar Absorption Coefficient ϵ

INSERT INTO results (compound, measured_metric, data_value) VALUES
  ('O=P1(c2ccccc2)C2=C(c3ccccc31)C(c1ccccc1)(c1ccccc1)c1cc(N(c3ccccc3)c3ccccc3)ccc12 (stereo not drawn)', 'Molar Absorption Coefficient ϵ', '1.60 10^4M^−1 cm^−1'),
  ('O=P1(c2ccccc2)C(c2ccc(N(c3ccccc3)c3ccccc3)cc2)=Cc2cc3ccccc3cc21 (stereo not drawn)', 'Molar Absorption Coefficient ϵ', '4.17 10^4M^−1 cm^−1'),
  ('O=P1(c2ccccc2)C(c2cc3c4c(c2)CCCN4CCC3)=Cc2cc3ccccc3cc21 (stereo not drawn)', 'Molar Absorption Coefficient ϵ', '2.38 10^4M^−1 cm^−1'),
  ('O=P1(c2ccccc2)C(c2ccc(N(c3ccccc3)c3ccccc3)cc2)=C(c2ccccc2)c2ccccc21 (stereo not drawn)', 'Molar Absorption Coefficient ϵ', '1.82 10^4M^−1 cm^−1'),
  ('O=P1(c2ccccc2)C(c2ccc(N(c3ccccc3)c3ccccc3)cc2)=Cc2ccccc21 (stereo not drawn)', 'Molar Absorption Coefficient ϵ', '1.95 10^4M^−1 cm^−1'),
  ('O=P1(c2ccccc2)C(c2ccc(N(c3ccccc3)c3ccccc3)cc2)=Cc2ccc3ccccc3c21 (stereo not drawn)', 'Molar Absorption Coefficient ϵ', '1.81 10^4M^−1 cm^−1');
